test system: RARa homodimer (NR concentration 270 nM); assay: PBM binding z-score (relative to random genomic background probes); higher = stronger binding; sequences stand for … in GC…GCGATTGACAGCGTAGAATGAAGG
Task for the reader: assign each of the following sequences its reported PBM binding z-score.
One number for each entry.

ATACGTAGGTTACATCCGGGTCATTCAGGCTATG | 0.687
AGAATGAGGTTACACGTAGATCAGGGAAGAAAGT | 0.499
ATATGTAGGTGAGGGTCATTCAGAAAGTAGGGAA | 2
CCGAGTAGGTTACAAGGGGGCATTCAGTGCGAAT | 0.759
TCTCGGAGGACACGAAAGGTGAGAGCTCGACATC | -0.329

Hi team, please reply with PBM binding z-score for each item in this list.
1. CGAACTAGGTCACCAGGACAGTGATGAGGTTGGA
2. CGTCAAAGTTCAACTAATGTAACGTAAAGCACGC
3. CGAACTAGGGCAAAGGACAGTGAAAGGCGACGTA
4. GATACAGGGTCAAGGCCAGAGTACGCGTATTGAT
5. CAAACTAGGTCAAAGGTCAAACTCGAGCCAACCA

1: 0.546; 2: 2.42; 3: -0.727; 4: 0.587; 5: 3.29
